Values compiled from the supplement of paper PMC10702517.

- procedure.summary: chemical recovery from spiked human plasma; higher = better extraction;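 further: plasma spiked with over 400 chemicals, quantified by LC-HRMS and GC-HRMS via internal standard calibration against matrix-matched unspiked plasma extracts plus spike mix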
- recorded.conditions: pooled human plasma; extraction method: SPE only (HLB 96-well), PES comparison experiment
Values of chemical recovery greater than or equal to 40% map to met; values below map to not met.

>  <compound>
O=[N+]([O-])/N=C1\NCCN1Cc1ccc(Cl)nc1

>  <label>
met

$$$$
>  <compound>
CCCCCCCCCCCCN(C)C

>  <label>
met

$$$$
>  <compound>
N#Cc1nn(-c2c(Cl)cc(C(F)(F)F)cc2Cl)c(N)c1C(F)(F)F

>  <label>
met

$$$$
>  <compound>
C#CC(C)(C)NC(=O)c1cc(Cl)cc(Cl)c1 [Propyzamide]

>  <label>
met

$$$$
>  <compound>
COc1ccc2cc(C(C)C(=O)O)ccc2c1 (stereo unspecified)

>  <label>
met

$$$$
>  <compound>
O=C(O)Cc1ccc(S(=O)(=O)O)cc1

>  <label>
not met

$$$$
>  <compound>
Clc1ccc(Cl)c(-c2cccc(Cl)c2Cl)c1

>  <label>
not met

$$$$
>  <compound>
C[C@H]1C[C@H]2[C@@H]3CCC4=CC(=O)C=C[C@]4(C)[C@@]3(F)[C@@H](O)C[C@]2(C)[C@@]1(O)C(=O)CCl

>  <label>
met

$$$$
>  <compound>
C=CCC1=C(C)C(OC(=O)C2C(C=C(C)C)C2(C)C)CC1=O (stereo unspecified)

>  <label>
not met

$$$$
>  <compound>
N#C/N=C1\SCCN1Cc1ccc(Cl)nc1

>  <label>
met

$$$$
>  <compound>
Cc1cccc(C)c1N(Cn1cccn1)C(=O)C[S+]([O-])CC(=O)O (stereo unspecified)

>  <label>
met

$$$$
>  <compound>
O=S(=O)(O)c1ccccc1

>  <label>
not met

$$$$
>  <compound>
Oc1ccc(Cl)cc1Cl

>  <label>
met

$$$$
>  <compound>
CC1(C)O[C@@H]2C[C@H]3[C@@H]4CCC5=CC(=O)C=C[C@]5(C)[C@@]4(F)[C@@H](O)C[C@]3(C)[C@]2(C(=O)CO)O1 [Triamcinolone acetonide]

>  <label>
met

$$$$
>  <compound>
COc1ccc(Cl)cc1C(=O)NCCc1ccc(S(=O)(=O)NC(=O)NC2CCCCC2)cc1 [Glibenclamide]

>  <label>
met

$$$$
>  <compound>
CC(=O)[C@@]1(O)CC[C@H]2[C@@H]3C[C@H](C)C4=CC(=O)CC[C@]4(C)[C@H]3CC[C@@]21C

>  <label>
met

$$$$
>  <compound>
CC(C)c1ccc(N)cc1

>  <label>
not met

$$$$
>  <compound>
O=[N+]([O-])c1ccc(O)c([N+](=O)[O-])c1

>  <label>
met

$$$$
>  <compound>
O=C(O)c1cc(Oc2ccc(Cl)cc2Cl)ccc1[N+](=O)[O-] [Bifenox free acid]

>  <label>
not met

$$$$
>  <compound>
CN(C)c1nc(=O)n(C2CCCCC2)c(=O)n1C

>  <label>
met

$$$$
>  <compound>
Cc1cccc(Nc2ccccc2C(=O)O)c1C

>  <label>
not met

$$$$
>  <compound>
CCOP(=O)(OCC)OCC [Triethylphosphate]

>  <label>
not met

$$$$
>  <compound>
COC(=O)c1cc(C(=O)OC)cc(S(=O)(=O)O)c1 [Dimethyl-5-sulfoisophthalate]

>  <label>
met

$$$$
>  <compound>
O=C1Nc2ccc(Cl)cc2C(C#CC2CC2)(C(F)(F)F)O1 (stereo unspecified)

>  <label>
not met

$$$$
>  <compound>
CC(=O)O[C@]1(C(C)=O)CC[C@H]2[C@@H]3C[C@H](C)C4=CC(=O)CC[C@]4(C)[C@H]3CC[C@@]21C [Medroxyprogesteroneacetate]

>  <label>
met

$$$$
>  <compound>
ClC1=C(Cl)C2(Cl)C3C4C=CC(C4)C3C1(Cl)C2(Cl)Cl (stereo unspecified)

>  <label>
not met

$$$$
>  <compound>
CC[C@H]1OC(=O)[C@H](C)[C@@H](O[C@H]2C[C@@](C)(OC)[C@@H](O)[C@H](C)O2)[C@H](C)[C@@H](O[C@@H]2O[C@H](C)C[C@H](N(C)C)[C@H]2O)[C@](C)(O)C[C@@H](C)C(=O)[C@H](C)[C@@H](O)[C@]1(C)O

>  <label>
not met

$$$$
>  <compound>
COc1cc(Cc2cnc(N)nc2N)cc(OC)c1OC

>  <label>
met

$$$$
>  <compound>
CC(C)CCCCCCOC(=O)C1CCCCC1C(=O)OCCCCCCC(C)C (stereo unspecified)

>  <label>
not met

$$$$
>  <compound>
C1=Cc2ccccc2Nc2ccccc21

>  <label>
not met

$$$$
>  <compound>
NC(=O)N1c2ccccc2CC(O)c2ccccc21 (stereo unspecified) [10,11-Dihydro-10-hydroxycarbamazepine]

>  <label>
met

$$$$
>  <compound>
c1ccc2c(c1)Cc1ccccc1-2

>  <label>
not met

$$$$
>  <compound>
Cc1cc(Cl)ccc1OCC(=O)O

>  <label>
met

$$$$
>  <compound>
CCCCc1c(C)nc(NCC)nc1OS(=O)(=O)N(C)C [Bupirimate]

>  <label>
met

$$$$
>  <compound>
CC(NC(C)(C)C)C(=O)c1cccc(Cl)c1 (stereo unspecified)

>  <label>
not met

$$$$
>  <compound>
CC12CC3CC(C)(C1)CC(N)(C3)C2 [Memantine]

>  <label>
met

$$$$
